Measured values drawn from patent US10500249B2 for this set.

# Target system: PKCβII (h) (Homo sapiens, UniProt P05771)
# Construct: purchased Millipore
# Sequence (P05771 1-673 isoform P05771-2): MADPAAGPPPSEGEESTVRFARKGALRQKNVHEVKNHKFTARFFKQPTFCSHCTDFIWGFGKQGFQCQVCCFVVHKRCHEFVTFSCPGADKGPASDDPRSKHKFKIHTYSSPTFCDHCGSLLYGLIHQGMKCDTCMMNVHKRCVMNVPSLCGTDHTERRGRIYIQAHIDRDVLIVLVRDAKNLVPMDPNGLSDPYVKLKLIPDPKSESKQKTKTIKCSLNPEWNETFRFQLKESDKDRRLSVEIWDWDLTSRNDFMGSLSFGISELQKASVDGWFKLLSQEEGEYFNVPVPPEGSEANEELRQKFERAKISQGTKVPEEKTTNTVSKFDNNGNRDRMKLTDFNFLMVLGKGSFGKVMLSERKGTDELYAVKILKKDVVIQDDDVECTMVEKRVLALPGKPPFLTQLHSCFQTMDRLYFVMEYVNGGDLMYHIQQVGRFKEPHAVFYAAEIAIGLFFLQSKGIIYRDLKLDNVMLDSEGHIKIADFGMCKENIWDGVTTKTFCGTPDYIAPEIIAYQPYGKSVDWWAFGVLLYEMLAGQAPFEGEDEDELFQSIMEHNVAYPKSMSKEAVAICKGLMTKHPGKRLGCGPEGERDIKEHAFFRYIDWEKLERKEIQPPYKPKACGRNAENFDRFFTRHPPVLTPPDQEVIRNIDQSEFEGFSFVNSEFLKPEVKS
# Measurement protocol: Kinase Profiling Assay
# Assay type: biochemical
# Condition info: 100 μM
Property: % activity (%)
Write the number in % without appending the unit.

Worked examples follow.
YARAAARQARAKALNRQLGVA (Mammalian) [MMI-0200] :: 100
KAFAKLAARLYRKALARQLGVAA [MMI-0400] :: 75
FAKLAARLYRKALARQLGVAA [MMI-0300] :: 82

Give the measured % activity of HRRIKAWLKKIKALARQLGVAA (Mammalian) [MMI-0500] .
3

----------
Listing of entries alongside the reported % activity.
# Target system: BrSK1 (h) (Homo sapiens, UniProt Q8TDC3)
# Sequence (Q8TDC3 1-778): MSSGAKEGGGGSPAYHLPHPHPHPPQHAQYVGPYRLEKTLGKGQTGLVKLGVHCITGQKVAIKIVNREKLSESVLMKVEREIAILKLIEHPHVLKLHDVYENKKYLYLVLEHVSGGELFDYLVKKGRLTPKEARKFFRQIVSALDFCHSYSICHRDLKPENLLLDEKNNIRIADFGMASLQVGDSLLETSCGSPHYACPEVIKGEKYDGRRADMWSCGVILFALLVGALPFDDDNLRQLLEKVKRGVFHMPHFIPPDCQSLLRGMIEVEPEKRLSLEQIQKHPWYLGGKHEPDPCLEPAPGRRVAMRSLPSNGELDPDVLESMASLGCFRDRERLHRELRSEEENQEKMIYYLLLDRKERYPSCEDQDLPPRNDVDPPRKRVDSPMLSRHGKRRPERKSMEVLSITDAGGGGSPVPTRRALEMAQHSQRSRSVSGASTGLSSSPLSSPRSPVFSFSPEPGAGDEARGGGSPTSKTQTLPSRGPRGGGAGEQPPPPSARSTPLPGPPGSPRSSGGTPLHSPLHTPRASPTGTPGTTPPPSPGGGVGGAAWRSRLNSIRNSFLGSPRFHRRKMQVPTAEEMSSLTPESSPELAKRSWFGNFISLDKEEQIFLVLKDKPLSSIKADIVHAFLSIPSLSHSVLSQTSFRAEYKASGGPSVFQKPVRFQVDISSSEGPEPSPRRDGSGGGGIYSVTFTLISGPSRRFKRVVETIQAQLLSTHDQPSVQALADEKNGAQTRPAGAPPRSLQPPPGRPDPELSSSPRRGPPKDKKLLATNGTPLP
# Measurement protocol: Kinase Profiling Assay
# Assay type: biochemical
# Condition info: 100 μM
Write the number in % without appending the unit.

Worked examples follow.
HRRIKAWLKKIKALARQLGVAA (Mammalian) [MMI-0500] :: 72
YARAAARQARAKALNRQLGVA (Mammalian) [MMI-0200] :: 93
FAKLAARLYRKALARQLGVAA [MMI-0300] :: 67

Give the measured % activity of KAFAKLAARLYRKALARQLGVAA [MMI-0400] .
76

----------
# Target system: TSSK1 (h) (Homo sapiens, UniProt Q9BXA7)
# Sequence (Q9BXA7 1-367): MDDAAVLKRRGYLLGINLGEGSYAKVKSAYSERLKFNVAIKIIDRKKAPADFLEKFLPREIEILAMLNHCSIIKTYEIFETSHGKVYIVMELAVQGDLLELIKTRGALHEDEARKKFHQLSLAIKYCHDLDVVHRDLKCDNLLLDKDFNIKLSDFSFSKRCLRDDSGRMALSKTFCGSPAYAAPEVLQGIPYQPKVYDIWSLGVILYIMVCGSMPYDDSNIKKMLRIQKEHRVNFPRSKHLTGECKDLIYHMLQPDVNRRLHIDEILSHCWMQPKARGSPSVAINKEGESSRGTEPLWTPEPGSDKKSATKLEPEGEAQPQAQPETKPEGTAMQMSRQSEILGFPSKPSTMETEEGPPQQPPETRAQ
# Measurement protocol: Kinase Profiling Assay
# Type: biochemical
# Condition info: 100 μM
Listing of entries alongside the reported % activity.
Write the number in % without appending the unit.

Worked examples follow.
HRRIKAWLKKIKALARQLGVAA (Mammalian) [MMI-0500] :: 46
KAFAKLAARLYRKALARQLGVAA [MMI-0400] :: 79
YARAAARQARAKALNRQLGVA (Mammalian) [MMI-0200] :: 98

Now take the following sequence into account.
Give the measured % activity of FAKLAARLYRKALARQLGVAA [MMI-0300] .
79

----------
# Target system: CK1δ (h) (Homo sapiens)
# Construct: purchased Millipore
# Sequence (P48730 whole entry): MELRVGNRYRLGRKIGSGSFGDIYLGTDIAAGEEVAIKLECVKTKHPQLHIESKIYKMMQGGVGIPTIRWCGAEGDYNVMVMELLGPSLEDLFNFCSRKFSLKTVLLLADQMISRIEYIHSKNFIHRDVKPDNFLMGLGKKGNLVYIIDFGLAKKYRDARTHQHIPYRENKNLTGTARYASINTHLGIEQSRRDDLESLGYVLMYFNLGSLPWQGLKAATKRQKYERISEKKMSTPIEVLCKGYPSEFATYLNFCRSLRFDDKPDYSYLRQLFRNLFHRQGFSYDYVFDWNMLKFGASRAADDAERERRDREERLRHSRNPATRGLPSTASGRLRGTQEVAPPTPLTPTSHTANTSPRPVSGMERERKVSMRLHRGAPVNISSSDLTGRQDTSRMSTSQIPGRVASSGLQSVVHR
# Measurement protocol: Kinase Profiling Assay
# Format: biochemical
# Condition info: 100 μM
Property: % activity (%)
Write the number in % without appending the unit.

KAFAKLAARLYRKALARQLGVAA [MMI-0400] :: 93
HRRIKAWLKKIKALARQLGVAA (Mammalian) [MMI-0500] :: 78
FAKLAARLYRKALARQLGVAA [MMI-0300] :: 92

Now take the following sequence into account.
Give the measured % activity of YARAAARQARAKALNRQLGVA (Mammalian) [MMI-0200] .
92

----------
# Target system: Met(M1268T) (h) (Homo sapiens, UniProt P08581, M1250T)
# Measurement protocol: Kinase Profiling Assay
# Assay type: biochemical
# Condition info: 100 μM
Property: % activity (%)
Write the number in % without appending the unit.

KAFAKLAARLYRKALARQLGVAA [MMI-0400] :: 265

Give the measured % activity of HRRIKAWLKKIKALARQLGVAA (Mammalian) [MMI-0500] .
239

Give the measured % activity of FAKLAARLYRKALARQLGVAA [MMI-0300] .
255

Give the measured % activity of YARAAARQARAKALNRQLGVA (Mammalian) [MMI-0200] .
143

----------
# Target system: GRK7 (h) (Homo sapiens)
# Construct: purchased Millipore
# Sequence (Q8WTQ7 1-553): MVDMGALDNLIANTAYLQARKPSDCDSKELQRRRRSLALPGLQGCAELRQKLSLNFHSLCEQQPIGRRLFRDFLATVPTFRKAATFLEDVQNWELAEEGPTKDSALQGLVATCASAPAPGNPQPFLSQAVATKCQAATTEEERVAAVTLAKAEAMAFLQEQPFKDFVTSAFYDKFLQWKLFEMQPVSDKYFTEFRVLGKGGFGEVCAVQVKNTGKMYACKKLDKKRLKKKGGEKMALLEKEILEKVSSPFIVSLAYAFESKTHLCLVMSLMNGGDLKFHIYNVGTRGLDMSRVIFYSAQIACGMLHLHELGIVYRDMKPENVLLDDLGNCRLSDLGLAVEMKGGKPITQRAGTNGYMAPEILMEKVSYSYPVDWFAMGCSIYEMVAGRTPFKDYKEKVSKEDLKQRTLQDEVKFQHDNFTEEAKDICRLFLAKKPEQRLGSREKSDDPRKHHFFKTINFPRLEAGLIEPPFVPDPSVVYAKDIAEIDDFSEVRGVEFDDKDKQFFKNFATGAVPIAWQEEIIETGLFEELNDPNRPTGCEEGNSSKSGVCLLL
# Measurement protocol: Kinase Profiling Assay
# Assay type: biochemical
# Condition info: 100 μM
Property: % activity (%)
Write the number in % without appending the unit.

Give the measured % activity of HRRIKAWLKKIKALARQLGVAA (Mammalian) [MMI-0500] .
93

Give the measured % activity of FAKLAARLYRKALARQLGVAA [MMI-0300] .
122

Give the measured % activity of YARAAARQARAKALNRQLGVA (Mammalian) [MMI-0200] .
124

Give the measured % activity of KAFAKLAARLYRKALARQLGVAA [MMI-0400] .
100

----------
# Target system: PKCγ (h) (Homo sapiens)
# Construct: purchased Millipore
# Measurement protocol: Kinase Profiling Assay
# Type: biochemical
# Condition info: 100 μM
Property: % activity (%)
Write the number in % without appending the unit.

For the record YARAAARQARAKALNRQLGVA (Mammalian) [MMI-0200] , what value of % activity is listed for PKCγ (h) (Homo sapiens)?
101

For the record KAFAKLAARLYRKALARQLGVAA [MMI-0400] , what value of % activity is listed for PKCγ (h) (Homo sapiens)?
79

For the record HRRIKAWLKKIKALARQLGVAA (Mammalian) [MMI-0500] , what value of % activity is listed for PKCγ (h) (Homo sapiens)?
6

For the record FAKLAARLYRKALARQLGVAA [MMI-0300] , what value of % activity is listed for PKCγ (h) (Homo sapiens)?
89

----------
Listing of entries alongside the reported % activity.
# Target system: MSSK1 (h) (Homo sapiens)
# Construct: purchased Millipore
# Sequence (Q9UPE1 whole entry): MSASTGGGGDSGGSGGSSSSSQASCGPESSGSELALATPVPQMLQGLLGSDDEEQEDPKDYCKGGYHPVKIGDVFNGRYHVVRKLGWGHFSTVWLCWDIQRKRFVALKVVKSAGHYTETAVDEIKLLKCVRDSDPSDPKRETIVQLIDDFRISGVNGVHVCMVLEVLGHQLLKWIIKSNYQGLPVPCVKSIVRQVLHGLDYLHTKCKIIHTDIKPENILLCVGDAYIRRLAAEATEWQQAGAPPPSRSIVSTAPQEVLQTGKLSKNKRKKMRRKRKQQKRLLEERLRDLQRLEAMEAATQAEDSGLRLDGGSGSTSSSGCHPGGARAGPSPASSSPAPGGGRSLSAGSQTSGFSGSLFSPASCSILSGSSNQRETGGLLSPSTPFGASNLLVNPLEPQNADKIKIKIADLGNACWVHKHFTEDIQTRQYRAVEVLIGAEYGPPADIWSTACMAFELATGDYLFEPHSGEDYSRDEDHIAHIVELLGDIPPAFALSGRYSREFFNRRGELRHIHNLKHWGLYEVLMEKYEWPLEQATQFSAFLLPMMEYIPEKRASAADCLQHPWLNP
# Measurement protocol: Kinase Profiling Assay
# Format: biochemical
# Condition info: 100 μM
Write the number in % without appending the unit.

Give the measured % activity of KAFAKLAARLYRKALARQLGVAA [MMI-0400] .
75

----------
Listing of entries alongside the reported % activity.
# Target system: PKG1β (h) (Homo sapiens, UniProt Q13976)
# Sequence (Q13976 1-686 isoform Q13976-2): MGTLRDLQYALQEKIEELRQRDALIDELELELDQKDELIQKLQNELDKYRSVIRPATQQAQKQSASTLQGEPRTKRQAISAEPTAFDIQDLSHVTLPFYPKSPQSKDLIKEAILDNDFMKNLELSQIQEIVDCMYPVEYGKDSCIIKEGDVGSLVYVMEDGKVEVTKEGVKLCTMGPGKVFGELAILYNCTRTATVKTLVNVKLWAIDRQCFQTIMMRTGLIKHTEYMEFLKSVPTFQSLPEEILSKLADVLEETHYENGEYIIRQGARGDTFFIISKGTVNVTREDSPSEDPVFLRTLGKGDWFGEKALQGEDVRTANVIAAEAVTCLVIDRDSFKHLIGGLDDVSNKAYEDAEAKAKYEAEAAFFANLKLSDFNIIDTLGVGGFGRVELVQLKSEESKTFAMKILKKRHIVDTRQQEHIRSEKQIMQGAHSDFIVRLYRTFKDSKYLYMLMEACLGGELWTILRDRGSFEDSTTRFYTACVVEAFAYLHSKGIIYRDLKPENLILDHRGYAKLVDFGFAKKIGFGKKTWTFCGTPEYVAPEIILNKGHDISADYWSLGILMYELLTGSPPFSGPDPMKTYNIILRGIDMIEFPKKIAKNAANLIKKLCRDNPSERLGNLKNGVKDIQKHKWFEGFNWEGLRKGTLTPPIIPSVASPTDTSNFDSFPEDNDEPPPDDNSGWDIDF
# Measurement protocol: Kinase Profiling Assay
# Format: biochemical
# Condition info: 100 μM
Write the number in % without appending the unit.

Worked examples follow.
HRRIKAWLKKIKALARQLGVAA (Mammalian) [MMI-0500] :: 24
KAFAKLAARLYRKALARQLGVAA [MMI-0400] :: 53
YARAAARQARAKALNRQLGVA (Mammalian) [MMI-0200] :: 57

Give the measured % activity of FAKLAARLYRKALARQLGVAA [MMI-0300] .
50
